Test system: MDA-MB-468
testDescription: normalised response (% of control), CellTiter-Glo; higher = more viable cells (100 = DMSO, 0 = benzethonium chloride kill control)
conditionDetails: incubation time: 72 h
Below: a set of entries, each annotated with reported normalised response.
Answer by giving the amount and then stating its unit.

Look over these answered cases.
>>> df
                                   molecule          readouttype  experimentalvalue
0  C[C@@H]1C[C@H]2[C@@H]3CCC4=CC(=O)C=C[C@]4(C)[C@@]3(F)[C@@H](O)C[C@]2(C)[C@@]1(O)C(=O)CO [Dexamethasone] (10 nM)  normalised response              97.9%
1  C[C@@H](C(=O)O)c1ccc(-c2ccccc2)c(F)c1 [Tarenflurbil] (10 nM)  normalised response              86.7%

Can you share its normalised response? I mean this molecule: C[C@@H]1C[C@H]2[C@@H]3CCC4=CC(=O)C=C[C@]4(C)[C@@]3(F)[C@@H](O)C[C@]2(C)[C@@]1(O)C(=O)CO [Dexamethasone] (1000 nM)
102%

Can you share its normalised response? I mean this molecule: N[C@@H](Cc1ccc(N(CCCl)CCCl)cc1)C(=O)O [Melphalan] (1.25 nM)
91.7%

Can you share its normalised response? I mean this molecule: Cn1nnc2c(C(N)=O)ncn2c1=O [Temozolomide] (1 nM)
100%

Can you share its normalised response? I mean this molecule: COc1cc2c(cc1-c1c(C)noc1C)ncc1[nH]c(=O)n([C@H](C)c3ccccn3)c12 [I-BET151] (1000 nM)
86.3%

Can you share its normalised response? I mean this molecule: CC(C)(C)Cn1c(N)nc2ccc(-c3[nH]c(C(C)(C)C)nc3-c3ccc(F)cc3)nc21 (10 nM)
102%
